Origin of measurements: the antibiotic and cytotoxicity screens of Wong et al. (2023)

- Tested on: HSkMC
- ASSAY NOTES: cytotoxicity call (relative viability < 0.9)
- REPORTED CONDITIONS: 10 µM
The campaign covered roughly 39,000 compounds. About 1,500 (3.8%) were called active. The sample as a whole holds a higher share of actives than the screen did.
Choose one outcome from this list and give only that: YES (active), NO (inactive)

Query: Just curious, what result did C[C@H]1CN([C@@H](C)CO)C(=O)c2cc(NC(=O)Nc3ccc(C(F)(F)F)cc3)ccc2O[C@H]1CN(C)Cc1ccc(C(=O)Nc2ccccc2N)cc1 get here?
Response: YES

Query: Assay result, entry C[C@@H]1CCCCO[C@@H](CN(C)Cc2ccc(C(=O)Nc3ccccc3N)cc2)[C@@H](C)CN([C@H](C)CO)C(=O)c2cc(NC(=O)Nc3ccc(C(F)(F)F)cc3)ccc2O1 — outcome?
Response: YES

Query: Which result was noted for this molecule in the test: C[C@@H]1CCCCO[C@@H](CN(C)Cc2ccc(C(=O)Nc3ccccc3N)cc2)[C@@H](C)CN([C@H](C)CO)C(=O)c2cc(NC(=O)Nc3ccc(F)cc3)ccc2O1
Response: NO

Query: State the result this test recorded for C[C@H]1CN([C@@H](C)CO)C(=O)c2cc(NC(=O)Nc3ccc(C(F)(F)F)cc3)ccc2O[C@@H]1CN(C)Cc1ccc(C(=O)Nc2ccccc2N)cc1 .
Response: NO

Query: Could you kindly confirm the outcome this assay logged for C[C@H](CO)N1C[C@H](C)[C@H](CN(C)Cc2ccc(C(=O)Nc3ccccc3N)cc2)Oc2ccc(NC(=O)Nc3ccc(C(F)(F)F)cc3)cc2C1=O ?
Response: YES

Query: // outcome(item) with item = C[C@@H]1CN([C@H](C)CO)C(=O)c2cc(NC(=O)Nc3ccc(C(F)(F)F)cc3)ccc2O[C@@H]1CN(C)Cc1ccc(C(=O)Nc2ccccc2N)cc1
Response: NO

* * *

- Test system: HSkMC (human skeletal muscle cells)
- ASSAY NOTES: cytotoxicity call (relative viability < 0.9)
- REPORTED CONDITIONS: 10 µM
In all, about 39,000 compounds went through this assay and about 1,500 (3.8%) were called active. The full list was thinned out, with actives kept by preference.
Respond using exactly one of the listed classes: Yes = active, No = inactive

Query: Tell me the assay call for COCC#Cc1ccc2c(c1)O[C@@H](CN(C)C(=O)C1CCOCC1)[C@H](C)CN([C@H](C)CO)S2(=O)=O please.
Response: No

Query: For this compound, state the assay outcome: C=CCN1C(=O)[C@]2(O[C@H](CCO)[C@@H]([Si](C)(C)c3ccc(OC)cc3)[C@@H]2C)c2cc(N3C(=O)c4cccc5cccc3c45)ccc21
Response: Yes

Query: Identify the outcome logged in this assay for the compound shown: Cc1noc(C)c1S(=O)(=O)Nc1cccc2c1O[C@@H](CN(C)C(=O)Nc1ccc3c(c1)OCO3)[C@@H](C)CN([C@@H](C)CO)C2=O
Response: No

Query: Which outcome was assigned to Cc1ccc(S(=O)(=O)Nc2ccc3c(c2)CC(=O)N([C@H](C)CO)C[C@@H](C)[C@@H](CN(C)Cc2ccc(-c4ccccc4)cc2)O3)cc1 in this test?
Response: Yes

Query: For this compound, state the assay outcome: C[C@H](CO)N1C[C@H](C)[C@H](CN(C)C(=O)c2ccccc2)OCCCC[C@H](C)Oc2ccc(NS(=O)(=O)c3ccccc3)cc2C1=O
Response: No

Query: Record request — test call for C[C@@H]1CN([C@@H](C)CO)S(=O)(=O)c2ccc(C#CCN(C)C)cc2O[C@@H]1CN(C)Cc1ccccc1F
Response: No

Query: Entry C=CCN1C(=O)[C@@]2(O[C@@H](CCO)[C@H]([Si](C)(C)F)[C@H]2C)c2cc(N3C(=O)c4cccc5cccc3c45)ccc21 : call = ?
Response: No

Query: Fill in: this test's call for Cc1ccc(S(=O)(=O)Nc2ccc3c(c2)CC(=O)N([C@H](C)CO)C[C@H](C)[C@H](CN(C)Cc2ccc(-c4ccccc4)cc2)O3)cc1 is ___
Response: No

Query: Hey, what did the test say about Cc1ccc(S(=O)(=O)Nc2ccc3c(c2)CC(=O)N([C@H](C)CO)C[C@H](C)[C@@H](CN(C)Cc2ccc(-c4ccccc4)cc2)O3)cc1 ?
Response: No

Query: Hi, do you know how Cc1ccc(S(=O)(=O)Nc2ccc3c(c2)CC(=O)N([C@@H](C)CO)C[C@H](C)[C@@H](CN(C)Cc2ccc(-c4ccccc4)cc2)O3)cc1 came out in this test?
Response: Yes

Query: How was O=C1OCC=C[C@H]2O[C@@]34C=CCN(Cn5nnc6ccccc65)C(=O)[C@H]3N(CCO)C(=O)[C@@H]4[C@@H]12 classified in this test?
Response: No

Query: What did this assay record as the result for C=CCN1C(=O)[C@@]2(O[C@@H](CCn3cc([C@H](O)c4ccccc4)nn3)[C@H]([Si](C)(C)c3ccc(OC)cc3)[C@H]2C)c2cc(N3C(=O)c4cccc5cccc3c45)ccc21 ?
Response: No

Query: So what was the verdict on C[C@H]1CN([C@@H](C)CO)C(=O)Cc2cc(NC(=O)c3ccncc3)ccc2O[C@@H]1CN(C)S(=O)(=O)c1ccc(Cl)cc1 in this test?
Response: No
